Source of measurements: PubChem BioAssay (NCATS)

- ASSAY_OVERVIEW: qHTS Assay for Identification of Small Molecule Antagonists for NFkB Signaling Pathway. (AID 624479);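 note: pathway stimulated with TNF alpha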; note: potency is the fitted concentration of half-maximal effect
- CONDITIONS_USED: NFkB pathway reporter cell assay, antagonist mode; series mostly up to 38.3 µM
The source made the active and inactive calls. Calls come from the whole dose curve.
ENDPOINT_NAME: Potency

Some solved cases for reference:
[
  {
    "COMPOUND": "O=C1C(CCC(O)c2ccc(F)cc2)C(c2ccc(O)cc2)N1c1ccc(F)cc1 (stereo not given)",
    "Potency": "inactive"
  },
  {
    "COMPOUND": "CCCCOCCOc1nc(-c2ccc(C(=O)O)c(F)c2)sc1C",
    "Potency": "inactive"
  },
  {
    "COMPOUND": "COc1cc2c(cc1OC)CC(=O)N(CCCN(C)C[C@H]1Cc3cc(OC)c(OC)cc31)CC2",
    "Potency": "inactive"
  },
  {
    "COMPOUND": "CCCCCCCCCCCCCC(=O)N[C@H](CO)[C@H](O)c1ccc([N+](=O)[O-])cc1",
    "Potency": "29.8 µM (active)"
  }
]

Then this compound:
Exercise: Please report the recorded Potency for CNC(=O)c1cc(COc2nnc(Nc3ccc(Cl)cc3)c3ccoc23)ccn1 .
Key: 26.6 µM (active)
